Origin of values: PubChem BioAssay AID1159580

Assay comment: chemical genetic growth profiling, strain panel (AID 1159580);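 also: tested at 20 µM; growth read once vehicle control cultures reached saturation at 30 °C; 1 = growth at the plate median or of vehicle wells; lower values mean less growth of the strain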
Condition description: S. cerevisiae deletion strains, growth OD, locus YGR078C, strain PAC10, active compounds read low
Out of some 5,500 compounds screened, about 2,000 (36%) were called active. Another 18% or so got no clear call; they are omitted. This is one part of the list.
Would you mind telling me the reported normalized growth of each entry?
Give bare numbers.

Reference set, count: 3
O=C(O)c1cc(=O)c2cccc(O)c2[nH]1 = 0.98
O=C(Nc1cccnc1)c1cccc(Cl)c1Cl = 0.983
COc1cccc(OC)c1C(=O)N[C@@H]1C(=O)N2[C@@H]1SC(C)(C)[C@@H]2C(=O)O = 1

For every item in the list below, what is its measured normalized growth?
1. CO[C@@]1(NC(=O)Cc2cccs2)C(=O)N2C(C(=O)O)=C(COC(N)=O)CS[C@@H]21
2. COc1cc2c(cc1OC)-c1cc(=Nc3c(C)cc(C)cc3C)n(C)c(=O)n1CC2
3. COc1ccc([C@H]2COc3c(ccc(O)c3OC)C2)c(OC)c1O

Reply |
1. 1.01
2. 1.01
3. 0.989

* * *

Assay comment: chemical genetic growth profiling, strain panel (AID 1159580)
Condition description: S. cerevisiae deletion strains, growth OD, locus YOL147C, strain pex11, active compounds read low
Among all 5,500 compounds or so, about 2,000 (36%) were called active. Not shown: some 18% with an inconclusive outcome. The list shows a part of the results.
Readout name: normalized growth
Answers are plain numbers.

CC1(C)S[C@@H]2[C@H](NC(=O)Cc3ccccc3)C(=O)N2[C@H]1C(=O)O = 1.02
CCCc1nc2c(C)cc(-c3nc4ccccc4n3C)cc2n1Cc1ccc(-c2ccccc2C(=O)O)cc1 = 1.01
COc1cc(-c2coc3cc(O[C@@H]4O[C@H](CO)[C@@H](O)[C@H](O)[C@H]4O)c(OC)c(O)c3c2=O)cc(O)c1OC = 1.01
COc1ccc2c(c1OC)OC[C@@H](c1ccc(OC)c(OC)c1OC)C2 = 1
CC(=O)OCC(=O)[C@@]12OC3(CCCC3)O[C@@H]1CC1C3CCC4=CC(=O)C=C[C@]4(C)[C@@]3(F)[C@@H](O)C[C@@]12C (some centres undefined) = 1
CC1(C)C=Cc2cc3ccc(=O)oc3cc2O1 = 0.964

For every item in the list below, what is its measured normalized growth?
1. CC(=O)CC1CCCCN1 (centres undefined)
2. O=c1c(O)c(-c2ccc(O)c(O)c2)oc2cc(O)ccc12
3. COc1ccc([C@H]2COc3c(ccc(O)c3OC)C2)c(OC)c1O
4. CC[C@H]1OC(=O)[C@H](C)[C@@H](O[C@H]2C[C@@](C)(OC)[C@@H](O)[C@H](C)O2)[C@H](C)[C@@H](O[C@@H]2O[C@H](C)C[C@H](N(C)C)[C@H]2O)[C@](C)(O)C[C@@H](C)[C@@H]2N[C@@H](COCCOC)O[C@H]([C@H]2C)[C@]1(C)O

Reply |
0.993
1
0.995
1

* * *

Assay comment: chemical genetic growth profiling, strain panel (AID 1159580)
Condition description: S. cerevisiae deletion strains, growth OD, locus YOR070C, strain gyp1, active compounds read low
About 2,000 (36%) of roughly 5,500 compounds were called active. Inconclusive results (about 18%) are left out. The list shows a part of the results. Where a SMILES comes first, the peptide text is derived from it. Bridges are numbered along the chain shown (N, C = ends). Side-chain parts run from the residue outwards. [ ]: non-standard residue; d: D form. The star is where a group is joined. Octanoyl(6-Me) = CCC(C)CCCCC(=O)*; X1 = CCC(C)C(N)C1=NC(C(=O)*)CS1; Orn = NCCC[CH](N)C(=O)O; Dab = NCC[CH](N)C(=O)O
Readout name: normalized growth
One number for each entry.

COc1ccc2c(c1)[C@]13CCCC[C@H]1[C@H](C2)N(C)CC3 = 0.987
COc1ccc(C(=O)c2ccc(O)cc2)c(O)c1O = 0.973
CCCc1nc2c(C)cc(-c3nc4ccccc4n3C)cc2n1Cc1ccc(-c2ccccc2C(=O)O)cc1 = 1.01
CNC(Cc1c[nH]c2ccccc12)C(=O)O (stereo not given) = 1
c1ccc([C@H]2CN3CCSC3=N2)cc1 = 1.01
CN(C)CCc1c[nH]c2ccc(CS(=O)(=O)N3CCCC3)cc12 = 1
COc1ccc([C@H]2COc3c(ccc(O)c3OC)C2)c(OC)c1O = 0.988
CC1=NN(c2ccccc2)C(=O)C1 = 0.995
Cc1cc(C(C)(C)C)c(O)c(C)c1CC1=NCCN1 = 1.01
CCC(C)CCCCC(=O)NC(CCN)C(=O)NC(C(=O)NC(CCN)C(=O)NC1CCNC(=O)C(C(C)O)NC(=O)C(CCN)NC(=O)C(CCN)NC(=O)C(CC(C)C)NC(=O)C(Cc2ccccc2)NC(=O)C(CCN)NC1=O)C(C)O (stereo not given) ({Octanoyl(6-Me)}-[Dab]T[Dab][Dab][Dab]FL[Dab][Dab]T; lactam 4-C; configuration not given here) = 0.995

For every item in the list below, what is its measured normalized growth?
1. NCCNCCNCCN
2. Cc1ccc(N(CC2=NCCN2)c2cccc(O)c2)cc1
3. CCNc1nc(Cl)nc(NCC)n1
4. Cc1cc(=O)n(-c2ccccc2)n1C
5. CCC(C)C(N)C1=NC(C(=O)NC(CC(C)C)C(=O)NC(CCC(=O)O)C(=O)NC(C(=O)NCCCCC2NC(=O)C(CC(N)=O)NC(=O)C(CC(=O)O)NC(=O)C(Cc3cnc[nH]3)NC(=O)C(Cc3ccccc3)NC(=O)C(C(C)CC)NC(=O)C(CCCN)NC2=O)C(C)CC)CS1 (stereo not drawn) (cyclo(DNK([Ile-Glu-Leu-X1])[Orn]IFH); configuration not given here)

Reply |
1
1
0.983
0.999
1.01

* * *

Would you mind telling me the reported normalized growth of each entry?
Assay comment: chemical genetic growth profiling, strain panel (AID 1159580);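 also: tested at 20 µM; growth read once vehicle control cultures reached saturation at 30 °C; 1 = growth at the plate median or of vehicle wells; lower values mean less growth of the strain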
Condition description: S. cerevisiae deletion strains, growth OD, locus YBL061C, strain skt5, active compounds read low
Out of some 5,500 compounds screened, about 2,000 (36%) were called active. Inconclusive results (about 18%) are left out. The list shows a part of the results.

Reference set, count: 3
CCNc1nc(Cl)nc(NCC)n1 = 0.991 (inactive)
Cc1ccc(N(CC2=NCCN2)c2cccc(O)c2)cc1 = 0.998 (inactive)
C[C@]12CCC(=O)C=C1CCC1C2C(=O)C[C@@]2(C)C1CC[C@]2(O)C(=O)CO (some centres undefined) = 1 (inactive)

Would you kindly look at the next entry?
Ask | Provide one value: measured normalized growth of CCC1(CC)C(=O)C=CNC1=O
Reply | 1.01 (inactive)

* * *

Would you mind telling me the reported normalized growth of each entry?
Assay comment: chemical genetic growth profiling, strain panel (AID 1159580);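 also: tested at 20 µM; growth read once vehicle control cultures reached saturation at 30 °C; 1 = growth at the plate median or of vehicle wells; lower values mean less growth of the strain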
Condition description: S. cerevisiae deletion strains, growth OD, locus YCL029C, strain bik1, active compounds read low
In all, about 5,500 compounds went through this assay and about 2,000 (36%) were called active. About 18% were inconclusive and are not listed. This is one part of the list.
Give bare numbers.

Reference set, count: 2
CC(=O)O[C@H]1CC[C@]2(C)C3CC[C@@]4(C)C(CC5O[C@@]6(CCC(C)CO6)[C@@H](C)C54)C3CC[C@@H]2C1 (stereo partly drawn) = 0.993
CO[C@@]1(NC(=O)Cc2cccs2)C(=O)N2C(C(=O)O)=C(COC(N)=O)CS[C@@H]21 = 0.995

Would you kindly look at the next entry?
Ask | Provide one value: measured normalized growth of C#CC1(O)CCC2C3CCC4=CC(=O)CCC4(C)C3CCC21C (stereo not drawn)
Reply | 0.984

* * *

Would you mind telling me the reported normalized growth of each entry?
Assay comment: chemical genetic growth profiling, strain panel (AID 1159580);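 also: tested at 20 µM; growth read once vehicle control cultures reached saturation at 30 °C; 1 = growth at the plate median or of vehicle wells; lower values mean less growth of the strain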
Condition description: S. cerevisiae deletion strains, growth OD, locus YJR043C, strain POL32, active compounds read low
Hit rate of the full screen: of about 5,500 compounds, about 2,000 (36%) were called active. About 18% were inconclusive and are not listed. Some of the results follow.
Answers are plain numbers.

NCCc1c[nH]c2ccccc12 = 1.02
Cc1ccc(-c2nn(-c3ccccc3)c(=O)c3ccccc23)cc1C = 0.998
CCc1cccc2c3c([nH]c12)C(CC)(CC(=O)O)OCC3 (stereo unspecified) = 1.01
NCC1OC(OC2C(CO)OC(OC3C(O)C(N)CC(N)C3OC3OC(CO)C(O)CC3N)C2O)C(N)C(O)C1OC1OC(CO)C(O)C(O)C1O (stereo unspecified) = 0.992
C1CCN(CCC2CCCCN2)CC1 (stereo unspecified) = 1
C1CCC(C(CC2CCCCN2)C2CCCCC2)CC1 (stereo unspecified) = 0.722

For every item in the list below, what is its measured normalized growth?
1. COC(=O)[C@]1(C)CC[C@]2(C)CC[C@]3(C)C4=CC=C5C(=CC(=O)C(O)=C5C)[C@]4(C)CC[C@@]3(C)[C@@H]2C1
2. COc1cccc(Nc2nc3ccccc3s2)c1

Reply |
0.646
0.856

For every item in the list below, what is its measured normalized growth?
1. COc1ccc([C@H]2COc3c(ccc(O)c3OC)C2)c(OC)c1O
2. COc1cc(NS(=O)(=O)c2ccc(N)cc2)ncn1
3. O=C(CCBr)N1CCN(C(=O)CCBr)CC1
4. N#Cc1nccnc1Sc1ccc(Cl)cc1
5. Cc1ccc(=O)n(Cc2ccc(Cl)c(Cl)c2)n1
6. O=C1CC2(CCCC2)C(=O)N1CCNc1nccc(C(F)(F)F)n1
7. CC(=O)N[C@@H](Cc1c[nH]c2ccccc12)C(=O)O

Reply |
[0.987, 0.994, 1.01, 0.993, 0.966, 0.999, 1.03]

For every item in the list below, what is its measured normalized growth?
1. CCC(=O)Nc1cc(OC)cc(OC)c1
2. COc1ccc2c(c1OC)OC[C@@H](c1ccc(OC)c(OC)c1OC)C2
3. O=C(OC[C@H]1O[C@H](OC(=O)c2cc(O)c(O)c(OC(=O)c3cc(O)c(O)c(O)c3)c2)[C@H](OC(=O)c2cc(O)c(O)c(OC(=O)c3cc(O)c(O)c(O)c3)c2)[C@@H](OC(=O)c2cc(O)c(O)c(OC(=O)c3cc(O)c(O)c(O)c3)c2)[C@@H]1OC(=O)c1cc(O)c(O)c(OC(=O)c2cc(O)c(O)c(O)c2)c1)c1cc(O)c(O)c(OC(=O)c2cc(O)c(O)c(O)c2)c1
4. CCCCCCCCCCCCCCCCCCOCC(O)CO (stereo unspecified)
5. CC(=O)OCC(=O)[C@@]12OC3(CCCC3)O[C@@H]1CC1C3CCC4=CC(=O)C=C[C@]4(C)[C@@]3(F)[C@@H](O)C[C@@]12C (stereo partly specified)
6. CC(NCCC(c1ccccc1)c1ccccc1)c1ccccc1 (stereo unspecified)
7. O=C(c1cccc([N+](=O)[O-])c1)c1cc2cc(Br)cc(Br)c2o1
8. O=C(CCc1ccc(O)cc1)c1c(O)cc(O)cc1O[C@@H]1O[C@H](CO)[C@@H](O)[C@H](O)[C@H]1O

Reply |
0.963
1.02
0.101
1.01
0.988
1
0.997
1.06

For every item in the list below, what is its measured normalized growth?
1. COc1cccc(NC(N)=S)c1
2. Cc1cc(=O)n(-c2ccccc2)n1C
3. COc1cc(/C=C2/N=C(c3ccccc3I)OC2=O)cc(OC)c1OC

Reply |
1: 1.01; 2: 1.04; 3: 1
